- Procedure text: logP determination by HPLC on a reversed-phase column (C 18), EEC Directive 79/831 Annex V.A8
- Assay type: physicochemical
- Condition label: method marked [b] in Table 1
A collection of compounds and their measured logP

{"Compound": "CCCC(=NOCC1(CON=C(CCC)c2cccc(C)n2)CC(c2ccc(Cl)cc2)=NO1)c1cccc(C)n1 (centres unmarked) [compound 622]", "logP": "6.58^[b]"}
{"Compound": "C=C(CON=Cc1cccc(C)n1)CON=C(C)c1cccc(C)n1 [compound 663]", "logP": "2.54^[b]"}
{"Compound": "CC(=NOCC(CON=C(C)c1ccc(C)c(C)n1)C(C)C)c1ccc(C)c(C)n1 (centres unmarked) [Compound 681]", "logP": "4.57^[b]"}
{"Compound": "C/C(=N\\OCC1(CO/N=C(\\C)c2ccc(C)c(C)n2)CC(c2ccccc2Cl)=NO1)c1ccc(C)c(C)n1 [compound 634]", "logP": "4.3^[b]"}
{"Compound": "Cc1cccc(C(N)=NOCC(C)CON=C(N)c2cccc(C)n2)n1 (centres unmarked) [compound 689]", "logP": "2.71^[b]"}
{"Compound": "CCC(=NOCC1(CON=C(CC)c2cccc(C)n2)CC(C)=NO1)c1cccc(C)n1 (centres unmarked) [compound 605]", "logP": "3.42^[b]"}
{"Compound": "Cc1cccc(C=NOCc2ccc(CON=Cc3cccc(C)n3)cc2)n1 [compound 735]", "logP": "2.80^[b]"}
{"Compound": "C=C(CON=C(Cl)c1cccc(C)n1)CON=C(Cl)c1cccc(C)n1 [compound 696]", "logP": "4.01^[b]"}

====

A collection of compounds and their measured logP
- Procedure text: logP determination by HPLC on a reversed-phase column (C 18), EEC Directive 79/831 Annex V.A8
- Type: physicochemical
- Condition label: value marked [b]

{"Compound": "CC(=NOCCCCCCON=C(C)c1cccc(C)n1)c1cccc(Cl)c1", "logP": "6.58^[b]"}
{"Compound": "CC(=NOC[Si](C)(CON=C(C)c1cc(C)cc(C)n1)C(C)C)c1cc(C)cc(C)n1", "logP": "5.04^[b]"}
{"Compound": "CC(=NOCC(C)(C)CON=C(c1ccccc1)c1cccc(C)n1)c1cccc(C)n1 (single isomer, unassigned) [compound 879]", "logP": "4.61^[b]"}
{"Compound": "CC(=NOCCCCCCON=C(C)c1cccc(C)n1)c1ccc2c(c1)CC(C)O2 (centres unmarked)", "logP": "5.97^[b]"}
{"Compound": "COc1cccc(C(C)=NOCCCCCCON=C(C)c2cccc(C)n2)c1", "logP": "5.59^[b]"}
{"Compound": "CC(=NOCC1(CON=C(C)c2ccc(C)c(C)n2)CC1)c1ccc(C)c(C)n1", "logP": "2.84^[b]"}
{"Compound": "CC=Cc1cc(C)nc(C(C)=NOCC(C)CON=C(C)c2cc(C=CC)cc(C)n2)c1 (centres unmarked)", "logP": "4.57^[b]"}
{"Compound": "C/C(=N\\OCC(C)CO/N=C(\\C)c1cncc(C)n1)c1cccc(C)n1 (centres unmarked)", "logP": "3.85^[b]"}

====

A collection of compounds and their measured logP
- Procedure text: logP determination by HPLC on a reversed-phase column (C 18), EEC Directive 79/831 Annex V.A8
- Format: physicochemical
- Condition label: method marker [a] (footnote not shown); isomer A / isomer B / isomer mixture as noted in the cell

{"Compound": "CC(=NOCC(C)CON=C(C)c1cccc(C(F)(F)F)n1)c1cccc(C(F)(F)F)n1 (centres unmarked) [Compound 169]", "logP": "6.41^[a]"}
{"Compound": "Cc1cccnc1C(Cc1ccccc1)=NOCC(C)CON=C(Cc1ccccc1)c1ncccc1C (single isomer, unassigned) [compound 108]", "logP": "5.32^[a] (isomer A)"}
{"Compound": "Cc1cccnc1C(CC(C)C)=NOCCCON=C(CC(C)C)c1ncccc1C [compound 93]", "logP": "5.96^[a]"}
{"Compound": "Cc1cccc(C(=NOCC(C)CON=C(c2cccc(C)n2)C2CC2)C2CC2)n1 (single isomer, unassigned) [Compound 164]", "logP": "3.51^]a] (isomer B)"}
{"Compound": "CC(=NOCC(C)CON=C(C)c1cncc(C)c1)c1cncc(C)c1 (centres unmarked) [compound 166]", "logP": "1.78^a]"}
{"Compound": "CC(=NOCC(C)CON=C(C)c1cccnc1C)c1cccnc1C (mixture of isomers) [compound 234]", "logP": "1.22^[a]"}
{"Compound": "CC(=NOCCCON=C(C)c1cccc(C(C)C)n1)c1cccc(C(C)C)n1 [compound 230]", "logP": "7.36^[a]"}
{"Compound": "CC(=NOCC(C)CON=C(C)c1cccc(CC(C)C)n1)c1cccc(CC(C)C)n1 (centres unmarked) [compound 172]", "logP": "7.36^[a]"}
{"Compound": "Cc1cccnc1C(CC(C)C)=NOCC(C)CON=C(CC(C)C)c1ncccc1C (single isomer, unassigned) [compound 102]", "logP": "6.50^[a] (isomer B)"}
{"Compound": "CC(=NOCC(C)CON=C(C)c1nc(C)cs1)c1nc(C)cs1 (mixture of isomers) [compound 122]", "logP": "4.98^[a]"}
{"Compound": "CC(=NOCC1(CON=C(C)c2cccc(C)n2)CCO1)c1ccccn1 (racemic) [compound 26]", "logP": "2.29^[a]"}

====

- Procedure text: logP determination by HPLC on a reversed-phase column (C 18), EEC Directive 79/831 Annex V.A8
- Assay type: physicochemical
- Condition label: value marked [a]
A collection of compounds and their measured logP
Metric: logP

{"Compound": "CCOc1cc(C)nc(C(C)=NOCC(C)(C)CON=C(C)c2cc(OCC)cc(C)n2)c1 [Compound 841]", "Test value": "2.00^[a]"}
{"Compound": "CC(=NOC1CCC(ON=C(C)c2cccc(C)n2)C1)c1cccc(C)n1 (mixture of isomers) [compound 797]", "Test value": "4.60^[a]"}
{"Compound": "CC(=NOC(=O)NCCCCNC(=O)ON=C(C)c1cccc(C)n1)c1cccc(C)n1 [compound 864]", "Test value": "1.97^[a]"}
{"Compound": "C=C(CON=C(c1cccc(C)n1)C(C)C)CON=C(c1cccc(C)n1)C(C)C (single isomer, unassigned) [compound 274]", "Test value": "4.87^[a] (isomer B)"}
{"Compound": "CC(=NOCC(C)CON=C(C)c1cc(Cl)cc(C)n1)c1cccc(C)n1 (centres unmarked) [compound 877]", "Test value": "6.58^[a]"}
{"Compound": "CC(=NOCC1CCCCC1ON=C(C)c1cccc(C)n1)c1cccc(C)n1 (centres unmarked) [Compound 823]", "Test value": "5.9^[a]"}
{"Compound": "CC(=NOC[Si](C)(CON=C(C)c1cc(C)cc(C)n1)C(C)C)c1cc(C)cc(C)n1 [Compound 836]", "Test value": "5.04^[a]"}
{"Compound": "CC(=NOCC(C)CON=C(C)c1cccc(C(F)F)n1)c1cccc(C(F)F)n1 (centres unmarked) [compound 306]", "Test value": "5.49^[a]"}

====

- Procedure text: logP determination by HPLC on a reversed-phase column (C 18), EEC Directive 79/831 Annex V.A8
- Type: physicochemical
- Condition label: reversed-phase HPLC column (C 18); [c] LC-MS, neutral range, pH 7.8, 0.001 molar aqueous ammonium bicarbonate solution and acetonitrile; read-out: logP
Metric: chromatographic logP

{"Cpd smiles": "C/C(=N\\OCC1(CON)CC1)c1ccc(C)c(C)n1", "Test value": 2.44}

====

- Procedure text: logP determination by HPLC on a reversed-phase column (C 18), EEC Directive 79/831 Annex V.A8
- Assay type: physicochemical
- Condition label: value marked [c]

{"Compound": "CC(=NOCC(C)CON=C(C)c1cc(CO)cc(C)n1)c1cc(CO)cc(C)n1 (centres unmarked)", "logP": "2.67^[c]"}
{"Compound": "CC(=NOCCC(C)ON=C(C)c1ccc(C)c(C)n1)c1ccc(C)c(C)n1 (centres unmarked)", "logP": "6.27^[c]"}
{"Compound": "COCC#Cc1cc(C)nc(C(C)=NOCC(C)CON=C(C)c2cc(C#CCOC)cc(C)n2)c1 (centres unmarked)", "logP": "6.87^[c]"}
{"Compound": "COc1cc(C)nc(C(C)=NOCC(C)CON=C(C)c2cc(OC)cc(C)n2)c1 (centres unmarked)", "logP": "5.25^[c]"}
{"Compound": "CC(=NOCC(C)CON=C(C)c1ccc(C)c(C)n1)c1cc(Cl)cc(C)n1 (centres unmarked)", "logP": "7.36^[c]"}
{"Compound": "CC[Si](CC)(CON=C(C)c1cccc(C)n1)CON=C(C)c1cccc(C)n1", "logP": "7.01^[c]"}
{"Compound": "CC(=NOCC(C)CON=C(C)c1cccc([Si](C)(C)C)n1)c1ccccn1 (centres unmarked)", "logP": "7.29^[c]"}
{"Compound": "CC(=NOCC(C)CON=C(C)c1cc(C(F)(F)F)cc(C)n1)c1cc(C(F)(F)F)cc(C)n1 (centres unmarked)", "logP": "5.53^[c]"}
